experiment: self-splicing fitness, log relative to wild type (ln ratio); higher = more splicing; Tetrahymena group I intron in knt gene, E. coli kanamycin selection, DiMSum; sequences stand for … in CUCUCU…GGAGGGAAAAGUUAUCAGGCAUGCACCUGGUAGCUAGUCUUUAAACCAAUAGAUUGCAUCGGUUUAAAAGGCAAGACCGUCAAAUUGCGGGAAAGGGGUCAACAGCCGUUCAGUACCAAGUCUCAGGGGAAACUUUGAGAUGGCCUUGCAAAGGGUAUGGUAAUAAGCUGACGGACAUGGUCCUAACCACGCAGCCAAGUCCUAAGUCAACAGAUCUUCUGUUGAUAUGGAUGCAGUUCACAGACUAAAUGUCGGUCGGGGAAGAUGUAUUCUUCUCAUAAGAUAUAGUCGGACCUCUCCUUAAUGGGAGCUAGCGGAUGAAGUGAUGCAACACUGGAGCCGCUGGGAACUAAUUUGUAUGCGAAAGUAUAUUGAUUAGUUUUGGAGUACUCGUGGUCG; settings: 37 °C;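 also: selection with 25 µg/mL kanamycin versus none on LB agar overnight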
MEASURED_METRIC: self-splicing fitness (ln)

Past entries and their recorded results:
UACGAGCAAUAUUACGUCUC: -2.56
CAUAAGCAAUAUUACGAUGC: -2.34
ACUUAGCAAUAUUACGUUCC: -2.04

Now look at this one.
Task: Entry UAACAGCAAUAUUACGGUCC : reported self-splicing fitness (ln) = ?
Output: -1.99
